Field: dose excreted. Provide a value for each of the compounds that follow.
PROTOCOL SUMMARY: Drug excretion in iv dosed dog assessed as compound excreted into bile
Format: ADME, organism-based, Canis lupus familiaris
ASSAY CONTEXT: read-out: Drug excretion

# input compound: Cc1nnc(SCC2=C(C(=O)O)N3C(=O)[C@@H](NC(=O)Cn4cnnn4)[C@H]3SC2)s1 [CEFAZOLIN] ; wanted: its dose excreted
2%

If you can, please state the reported dose excreted value of CO[C@@]1(NC(=O)C2SC(=C(C(N)=O)C(=O)O)S2)C(=O)N2C(C(=O)O)=C(CSc3nnnn3C)CS[C@@H]21 (some centres undefined) [CEFOTETAN] .
17%

GET /values?readout=dose excreted&item= COc1cccc2c1C(=O)c1c(O)c3c(c(O)c1C2=O)C[C@@](O)(C(=O)CO)C[C@@H]3O[C@H]1C[C@H](N)[C@H](O)[C@H](C)O1 [DOXORUBICIN]
10%

Field request: dose excreted | item: N=C(N)N1CCC[C@@H](CNC(=O)C[C@H](NS(=O)(=O)c2ccc3ccccc3c2)C(=O)N(CC(=O)O)C2CC2)C1 [NAPSAGATRAN ANHYDROUS]
97%

Taken from ChEMBL document CHEMBL3526096.
